tested on: 7G8; assay: qHTS profiling for inhibitors of Plasmodium falciparum proliferation (AID 504749); further: nearly all actives have a fitted effect of over 60% in size; conditions: P. falciparum in erythrocytes, SYBR Green DNA, 72 h; series mostly up to 28.7 µM
Results filed as inconclusive are left out. Active and inactive are the calls of the source. The call rests on the fitted dose curve; in most records, active means well fitted inhibition curve with a large enough effect; inconclusive means small, poorly fitted or top-dose-only effect; inactive means flat fitted curve, though single readings scatter.
# output must be one of active, inactive

Study these solved cases before continuing.
[[record]]
compound = "CN(C)CC/C=C1\\c2ccccc2COc2ccc(CC(=O)O)cc21"
system_tested = "7G8"
category = "inactive"

[[record]]
compound = "C=C[C@H]1CN2CCC1C[C@H]2[C@H](O)c1ccnc2ccc(OC)cc12 (stereo partly drawn)"
system_tested = "7G8"
category = "active"

[[record]]
compound = "C/C=C\\C[C@H](C)[C@H](O)[C@H]1C(=O)N[C@@H](CC)C(=O)N(C)CC(=O)N(C)[C@@H](CC(C)C)C(=O)N[C@@H](C(C)C)C(=O)N(C)[C@@H](CC(C)C)C(=O)N[C@@H](C)C(=O)N[C@@H](C)C(=O)N(C)[C@@H](CC(C)C)C(=O)N(C)[C@@H](CC(C)C)C(=O)N(C)[C@@H](C(C)C)C(=O)N1C"
system_tested = "7G8"
category = "active"

[[record]]
compound = "CC[C@@]1(O)C[C@H](O[C@H]2C[C@@H](N(C)C)[C@@H](O[C@H]3C[C@@H](O)[C@@H](O[C@H]4CCC(=O)[C@@H](C)O4)[C@@H](C)O3)[C@@H](C)O2)c2c(cc3c(c2O)C(=O)c2c(O)cccc2C3=O)[C@H]1C(=O)OC"
system_tested = "7G8"
category = "active"

[[record]]
compound = "Cc1cc2nc3c(=O)[nH]c(=O)nc-3n(CC(O)C(O)C(O)COP(=O)(O)O)c2cc1C (stereo not drawn)"
system_tested = "7G8"
category = "inactive"

[[record]]
compound = "CCCC(=O)O[C@]1(C(=O)COC(C)=O)CC[C@H]2C3C[C@H](F)C4=CC(=O)C=CC4(C)[C@@]3(F)[C@@H](O)CC21C (stereo partly drawn)"
system_tested = "7G8"
category = "active"


Hi, sorry to bother you, what did the test record for O=C1NC(=O)C2C3C=CC(C3)C12 (stereo not drawn) ?
inactive

Queued: CCCCCOC(=O)Nc1nc(=O)n(C2O[C@H](C)[C@@H](O)[C@@H]2O)cc1F (stereo partly drawn)
inactive

From: PubChem BioAssay (NCATS)
